experiment: in vitro; type: in vitro ADME; settings: dog, MDCK
Readout: Papp A→B at 4 h, 1 μM (×10⁻⁶ cm/s)
The figure you give is taken to be in ×10⁻⁶ cm/s; do not add the unit.

Challenge: # input compound: COc1cc2c(cc1OC)CN(CCc1ccc(NC(=O)c3cccc4c(=O)c5cccc(OC)c5[nH]c34)cc1)CC2 ; wanted: its Papp A→B at 4 h, 1 μM
Response given: 11.2

====

experiment: Plasma concentrations in the brain penetration studies; details: female, FVB (wildtype), mouse, in vivo, iv, 5 mg/kg, Loperamide plasma AUC(0-1 h), mean, loperamide alone
Readout: AUC(0-t) (ng·h/mL)
The figure you give is taken to be in ng·h/mL; do not add the unit.

Challenge: # input molecule: CN(C)C(=O)C(CCN1CCC(O)(c2ccc(Cl)cc2)CC1)(c1ccccc1)c1ccccc1 [loperamide] ; wanted: its AUC(0-t)
Response given: 747
